Here, each record is paired with measured Absorbance at 450 nM data.
system: T1, CD11b A-domain CD11bA-F275S/F302G, construct BZ348013 (human, UniProt P11215 148-337)
T1 chain: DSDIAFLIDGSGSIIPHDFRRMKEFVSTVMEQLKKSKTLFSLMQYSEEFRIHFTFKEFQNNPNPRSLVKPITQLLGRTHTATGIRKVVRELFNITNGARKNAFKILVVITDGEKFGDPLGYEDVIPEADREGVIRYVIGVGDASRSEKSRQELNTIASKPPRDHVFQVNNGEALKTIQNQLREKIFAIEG
assay-details: counterscreen phage ELISA on coated antigen
# print the numeric value only

{"binder": "Clone 6 149-014-6 (VL-linker-VH) (scFv, From the naive human scFv phage display library) scFv: QSVLTQPPSASGTPGQRVTISCSGSSSNIGSNYVSWYQQLPGTAPKLLIYDNNKRPSGIPDRFSGSKSGTSATLGITGLQTGDEADYYCGTWDSSLSALYVFGAGTKLTVLGEGKSSGSGSESKASQVQLQESGPGLVKPSETLSLTCSVSGGSTSSYYWSWIRQPPGKGLEWIGYISNSGSTNYNPSLKSRVTMSIDTSNNQFSLKLSSVTAADTAVYYCASHLGATWRWGQGTLVTVSS", "meas-value": 1.3}
{"binder": "Clone 5 149-014-5 (VL-Linker-VH) (scFv, From the naive human scFv phage display library) scFv: SSELTQDPAVSVALGQTVRITCQGDSLRSYYASWYQQKPGQAPVLVIYGKNNRPSGIPDRFSGSTSGNFASLTITGAQAEDGADYYCHSRDSSGNHLVFGGGTKLTVLGEGKSSGSGSESKASEVQLVQSGAEVKKPGESLKISCKGSGYSFTSYWIGWVRQMPGKGLEWMGIIYPGDSDTRYSPSFQGQVTISADKSISTAYLQWSSLKASDTAMYYCARRARGAFDIWGQGTLVTVSS", "meas-value": 1.65}
{"binder": "Clone 14 149-014-14 (VK-Linker-VH) (scFv, From the naive human scFv phage display library) scFv: DVVMTQSPLSLPATLGQPASISCRSSQSLVYTDGNTYLNWFQQRPGQSPRRLIYKVSNRDSGVPDRFSGSGSGTHFTLKISRVEAEDVGVYYCMQGTHWPPTFGQGTKVEIKEGKSSGSGSESKASEVQLVQSGAEVKKPGASVKVSCKASGGTFSSYAISWVRQAPGQGLEWMGGIIPIFGTANYAQKFQGRVTITADESTSTAYMELSSLRSEDTAVYYCASSGVDYWGQGTLVTVSS", "meas-value": 0.953}

I am curious: what Absorbance at 450 nM value has been reported for Clone 13 149-014-13 VH only (other) VH: EVQLLESGGGLVQPGGSLRLSCAASGFTFSSDLMSWVRQAPGKGLEWVSAISGSGGSTYYADSVKGRFTISRDNSKNTLYLQMNSLRAEDTAVYYCAKNEVIFDYWGQGTLVTVSSASTKGLSMFDYWGQGTKVEIK ?
0.954
